Target: hROMK (hKir1.1) (Homo sapiens)
Sequence (P48048 1-391): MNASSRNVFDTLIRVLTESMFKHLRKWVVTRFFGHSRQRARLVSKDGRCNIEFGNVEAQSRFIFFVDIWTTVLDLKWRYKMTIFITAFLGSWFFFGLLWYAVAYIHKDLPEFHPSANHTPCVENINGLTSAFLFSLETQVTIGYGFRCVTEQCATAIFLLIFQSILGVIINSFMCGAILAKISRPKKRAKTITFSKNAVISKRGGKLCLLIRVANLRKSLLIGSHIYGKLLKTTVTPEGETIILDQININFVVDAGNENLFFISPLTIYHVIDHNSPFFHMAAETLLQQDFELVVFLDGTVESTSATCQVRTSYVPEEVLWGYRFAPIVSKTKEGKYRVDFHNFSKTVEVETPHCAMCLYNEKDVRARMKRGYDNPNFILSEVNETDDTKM
Assay: Thallium Flux Assay
Conditions: HEK293 cells stably expressing hROMK (hKir1.1)
MEASURED PROPERTY: IC50 (nM)

In [3]: df
Out[3]:
                                   molecule  value
0  Cc1cc(C(=O)NC2CCN(CCc3ccc4c(c3C)COC4=O)CC2)ncc1C#N [Example 19]     50

[I] Cc1c([C@@H](O)CN2CCC(NC(=O)c3ncc(C#N)c4ccccc34)CC2)ccc2c1COC2=O [Example 42]
[II] Cc1c([C@@H](O)CN2CCC(NC(=O)c3ccc(-n4cnnn4)cn3)CC2)ccc2c1COC2=O [Example 53]
[III] Cc1c([C@@H](O)CN2CCC(N3Cc4cc([N+](=O)[O-])ccc4C3=O)CC2)ccc2c1COC2=O [Example 88]
**Query** // ascending sort on recorded IC50 Reply with the labels, ordered as the question asks.
**Result** III, I, II

[a] Cc1c([C@@H](O)CN2CCC(C)(CNC(=O)c3ccc(-n4cnnn4)cn3)C2)ccc2c1COC2=O (single isomer, unassigned) [69 B]
[b] Cc1cc(C(=O)NC2CCN(C[C@H](O)c3ccc4c(c3C)COC4=O)CC2)ccc1C#N [Example 25]
**Query** Of a and b , whose reported IC50 is numerically smaller? Returns: label corresponding to the selected item.
**Result** b

----------
biological target: hROMK (hKir1.1) (Homo sapiens, UniProt P48048); test: Thallium Flux Assay; details: HEK293 cells stably expressing hROMK (hKir1.1)
MEASURED PROPERTY: IC50 (nM)

# example entries with known answers
>>> df
                                   compound                                    system   u  value
0  Cc1c([C@@H](O)CN2CCC(CNC(=O)c3ccc(-n4cnnn4)cn3)C2)ccc2c1COC2=O (stereo partly drawn) [Example 86]  hROMK (hKir1.1) (Homo sapiens, UniProt P48048)  nM    980
1  COc1cc(C(=O)NC2CCN(CCc3ccc4c(c3C)COC4=O)CC2)ccc1C#N [Example 5]  hROMK (hKir1.1) (Homo sapiens, UniProt P48048)  nM     20
2  Cc1c([C@@H](O)CN2CCC(CNC(=O)c3ccc(-n4cnnn4)nc3)(c3ccccc3)C2)ccc2c1COC2=O (single isomer, unassigned) [81 B]  hROMK (hKir1.1) (Homo sapiens, UniProt P48048)  nM    160
3  Cc1c(CCN2CCC(NC(=O)c3cc(C#N)cs3)CC2)ccc2c1COC2=O [Example 32]  hROMK (hKir1.1) (Homo sapiens, UniProt P48048)  nM    480
4  Cc1nc(C(=O)N[C@H]2CCN(C[C@H](O)c3ccc4c(c3C)COC4=O)C[C@H]2F)ccc1C#N (single isomer, unassigned) [44 B]  hROMK (hKir1.1) (Homo sapiens, UniProt P48048)  nM    260
5  Cc1c([C@@H](O)CN2CCC(NC(=O)c3cccc(-n4cnnn4)c3)CC2)ccc2c1COC2=O [Example 36]  hROMK (hKir1.1) (Homo sapiens, UniProt P48048)  nM    450
6  Cc1c([C@@H](O)CN2CCC(C)(CNC(=O)c3ccc(-n4cnnn4)cn3)C2)ccc2c1COC2=O (single isomer, unassigned) [69 A]  hROMK (hKir1.1) (Homo sapiens, UniProt P48048)  nM    880
7  Cc1c(C(O)CN2CCC(NC(=O)c3ccc4c(c3)COC4=O)CC2)ccc2c1COC2=O (stereo not drawn) [Example 6]  hROMK (hKir1.1) (Homo sapiens, UniProt P48048)  nM     40

[I] Cc1c([C@@H](O)CN2CC[C@@H](NC(=O)c3ccc(C#N)cn3)[C@H](F)C2)ccc2c1COC2=O [Example 38]
[II] Cc1c([C@@H](O)CN2CCC(NC(=O)c3ccc(C#N)cn3)CC2)ccc2c1COC2=O [Example 28]
**Query** Recorded IC50 values differ for I and II ; which one is higher? Answer with the label corresponding to your selection.
**Result** I

[a] Cc1c(CCN2CCC(NC(=O)c3ccc(C#N)cc3S(C)(=O)=O)CC2)ccc2c1COC2=O [Example 29]
[b] Cc1c([C@@H](O)CN2CC[C@H](NC(=O)c3ccc(-n4cnnn4)cn3)C2)ccc2c1COC2=O [Example 61]
[c] Cc1c([C@@H](O)CN2CC[C@H](NC(=O)c3ccc(-n4cnnn4)nc3)[C@H](F)C2)ccc2c1COC2=O (single isomer, unassigned) [50 A]
[d] Cc1c([C@@H](O)CN2CCC(NC(=O)c3ccc(C#N)nc3)CC2)ccc2c1COC2=O [Example 24]
**Query** Rank by IC50 (largest to smallest). Lab note: final answer is the ordered label list.
**Result** a, b, d, c

[a] Cc1c(CCN2CCC(NC(=O)c3ccc(F)c(C#N)c3)CC2)ccc2c1COC2=O [Example 12]
[b] Cc1c([C@@H](O)CN2CCC3(CC2)CCN3C(=O)c2ccc(-n3cnnn3)cn2)ccc2c1COC2=O [Example 55]
**Query** Which item exceeds the other in IC50, a or b ? Give the chosen item's label as your response.
**Result** a
(a: 1000 nM, b: 530 nM)

[I] Cc1nc(C(=O)NC2CCN(C[C@H](O)c3ccc4c(c3C)COC4=O)CC2)ccc1C#N [Example 41]
[II] Cc1c([C@@H](O)CN2CCC(NC(=O)c3ccc(-n4cnnn4)c4ncccc34)CC2)ccc2c1COC2=O [Example 79]
[III] COc1cc(C(=O)NC2CCN(CC(O)c3ccc4c(c3C)COC4=O)CC2)ccc1C#N (stereo not drawn) [Example 7]
[IV] Cc1cc(C(=O)NC2(C)CCN(C[C@H](O)c3ccc4c(c3C)COC4=O)CC2)ncc1-n1cnnn1 [Example 63]
[V] Cc1c([C@@H](O)CN2CCC(NC(=O)c3ccc(-n4cccn4)cc3)CC2)ccc2c1COC2=O [Example 37]
**Query** // ascending sort on recorded IC50 List the labels according to the requested ordering.
**Result** III, I, V, II, IV
(III: 10 nM, I: 70 nM, V: 100 nM, II: 370 nM, IV: 860 nM)

----------
biological target: UniProt:P48048; assay: Thallium Flux Assay; details: HEK293 cells stably expressing hROMK (hKir1.1)
MEASURED PROPERTY: IC50 (nM)

Check out these entries, answers already filled in.
>>> df
                                   molecule          system  measured_property  value
0  Cc1c([C@@H](O)CN2CC[C@H](NC(=O)c3ccc(-n4cnnn4)cn3)[C@H](F)C2)ccc2c1COC2=O (single isomer, unassigned) [58 B]  UniProt:P48048               IC50    870
1  Cc1cc(C(=O)NC2CCN(C[C@H](O)c3ccc4c(c3C)COC4=O)CC2F)ncc1C#N (single isomer, unassigned) [48 A]  UniProt:P48048               IC50     80
2  Cc1c([C@@H](O)CN2CCC(C)(NC(=O)c3ccc(-n4cnnn4)cn3)CC2)ccc2c1COC2=O  UniProt:P48048               IC50    180
3  COc1ccc(C(=O)NC2CCN(CC(O)c3ccc4c(c3C)COC4=O)CC2)cc1C#N (stereo not shown)  UniProt:P48048               IC50     60
4  Cc1cc(C(=O)N[C@H]2CCN(C[C@H](O)c3ccc4c(c3C)COC4=O)C[C@H]2F)ccc1C#N (single isomer, unassigned) [47 A]  UniProt:P48048               IC50    160

[1] Cc1cc(C(=O)NC2CCN(C[C@H](O)c3ccc4c(c3C)COC4=O)CC2)ncc1-n1cnnn1
[2] Cc1c([C@@H](O)CN2CCC(C)(CNC(=O)c3ccc(-n4cnnn4)nc3)C2)ccc2c1COC2=O (stereo partly shown)
**Query** Compare IC50: is it lower for 1 or for 2 ? Answer by stating the label of the chosen item.
**Result** 1
(1: 90 nM, 2: 190 nM)
